Just for reference, PubChem BioAssay (NCI) is where these values come from.

Test system: OVCAR-8 ovarian
method-summary: NCI tumour cell line growth inhibition, 48 h
# maps each entry to its GI50
readout: GI50

Cc1ccc2nc(-c3ccc(N(C)C)c(Br)c3)cn2c1 | 17.4 µM
CCOc1cc(/C=N\Nc2nnc(C)n2N)c(C)cc1N(CCCl)CCCl | 1.34 µM
CCOC(=O)/C=C/C1=C(c2cccs2)c2ccccc2CC1 | 30.5 µM
Cc1cc2c(cc1Cl)SC1=NN(C)C(N(C)C)N1S2(=O)=O (centres undefined) | > 100 µM
COC(=O)C1CCc2sc3ncnc(Nc4cn[nH]c4C(=O)Nc4ccc(CN5CCN(C)CC5)cc4)c3c21 (centres undefined) | 0.711 µM
N#CCCN(CCC#N)c1ccc(C(Sc2ccccc2)C(NC(=O)c2cc([N+](=O)[O-])ccc2Cl)C(=O)Sc2ccccc2)cc1 (centres undefined) | 1.63 µM
COc1cc(-c2n/c(=C\c3c(O)[nH]c4ccc(Cl)cc34)cc3c2=Nc2ccccc2-3)ccc1F | 2.03 µM
Nc1ccccc1C#C/C=C\C#Cc1ccccc1[N+](=O)[O-] | 4.83 µM
Cc1cc(S(=O)(=O)NC#N)c(S/C(=N\Nc2ccc([N+](=O)[O-])cc2)c2ccc(Cl)cc2)cc1Cl | 31.7 µM

---

Some molecules, each annotated with its measured GI50.
Tested on: IGROV1 ovarian
method-summary: NCI tumour cell line growth inhibition, 48 h
readout: GI50

COc1ccc2[nH]c(O)c(C(=Nc3ccc(N(C)C(=O)CN4CCN(C)CC4)cc3)c3ccccc3)c2c1 | 1.36 µM
Cc1sc2nc3c4ccccc4c(NCCCN(C)C)nn3c(=O)c2c1C | 5.3 µM
Cc1nc2sccn2c1-c1csc(Nc2cccc(Cl)c2C)n1 | 8.83 µM

---

System: SW-620 colon
method-summary: NCI tumour cell line growth inhibition, 48 h
readout: TGI

CCOC(=O)/C=C1\CCCC12OCCO2 | > 100 µM
Nc1nc(Cl)cc(NCC2(O)CC2)n1 | > 100 µM
N#CCCN(CCC#N)c1ccc(C(Sc2ccccc2)C(NC(=O)c2cc([N+](=O)[O-])ccc2Cl)C(=O)Sc2ccccc2)cc1 (configuration not stated) | 14.3 µM
Cc1ccc2nc(-c3ccc(N(C)C)c(Br)c3)cn2c1 | > 100 µM
CS(=O)(=O)CSCSSCS(C)(=O)=O | 34.3 µM
CCOC(=O)c1cc(/C=C/C(C)=C/C(=O)OC)oc1C | > 100 µM
OCCOCn1nncc1Cn1ncc2c(SCc3ccccc3)ncnc21 | > 100 µM
O=C(c1ccncc1)n1nc(-c2ccccc2)c(N=Nc2ccccc2[N+](=O)[O-])c1-c1ccccc1 | > 100 µM
COc1cc(C(=O)Oc2ccc3c(c2)OCO3)cc(OC)c1OC | > 100 µM
CCn1c2ccc(O)cc2c2c(C)c3c[n+](C)ccc3c(C)c21 | > 100 µM
Cc1[nH]nc(C(=O)n2nc(N)c3ccccc32)c1[N+](=O)[O-] | > 100 µM
CC[C@]1(O)C(=O)OCc2c1cc1n(c2=O)Cc2cc3c(N)cccc3nc2-1 | > 100 µM

---

Tested on: MDA-MB-231 breast
method-summary: NCI tumour cell line growth inhibition, 48 h; in the data active = GI50 below about 0.43 µM; inactive = the rest
Outcomes: active, inactive

CC[PH+](CC)CC.O=COC1OC([S-])C(OC=O)C(OC=O)C1OC=O.[Au+] (stereo unspecified) | inactive
O=C(O)C1CCCCC1C(=O)O.[NH-]C1CCC1.[NH2-].[Pt+2] (stereo unspecified) | inactive
Cc1ccc(-c2csc(NC(=O)CN3CCN(c4cc5c(cc4F)c(=O)c(C(=O)O)cn5C4CC4)CC3)n2)cc1 | inactive
O=C1c2cc(Cl)ccc2-c2c1c1ccc([N+](=O)[O-])cc1c(=O)n2CCCBr | inactive
Cc1ccc2nc(-c3ccc(N(C)C)c(Br)c3)cn2c1 | inactive
CNCCn1c(=O)c2cc(OC)c(OC)cc2c2ccc3cc4c(cc3c21)OCO4 | active
